- methodDescription: The drug is tested on WLS-350 corresponding to human gut metagenome with ENA study accession number: PRJEB37062 and ENA sample accession number: ERS12561789 for biotransformation under anaerobic condition. The drug concentrations were measured over 9 timepoints collected between 0 and 24 hours of incubation by liquid-chromatography-coupled mass spectrometry (LC–MS); note: call rule not given here
- conditionDetails: 2 µM
measuredQuantity: Bacterial Biotransformation

Use the examples below as a reference point.
compound	Bacterial Biotransformation
COc1cc2nc(N3CCN(C(=O)C4COc5ccccc5O4)CC3)nc(N)c2cc1OC.CS(=O)(=O)O (stereo not drawn) [DOXAZOSIN MESYLATE]	Compound metabolized
CN1CCC(OC(c2ccccc2)c2ccccc2)CC1	Compound NOT metabolized
Cc1ccccc1C(OCCN(C)C)c1ccccc1.O=C(O)CC(O)(CC(=O)O)C(=O)O (stereo not drawn) [ORPHENADRINE CITRATE]	Compound NOT metabolized
COc1ccccc1OCCNCC(O)COc1cccc2[nH]c3ccccc3c12 (stereo not drawn) [CARVEDILOL]	Compound metabolized
CC(=O)OCC(=O)NCCCOc1cccc(CN2CCCCC2)c1 [ROXATIDINE ACETATE]	Compound metabolized
CN(C/C=C/C#CC(C)(C)C)Cc1cccc2ccccc12 [TERBINAFINE]	Compound metabolized
CC[C@H](C)C(=O)O[C@H]1CCC=C2C=C[C@H](C)[C@H](CC[C@@H]3C[C@@H](O)CC(=O)O3)[C@H]21 [MEVASTATIN]	Compound NOT metabolized
CC(C)(C)N.CCC[C@H](N[C@@H](C)C(=O)N1[C@H](C(=O)O)C[C@@H]2CCCC[C@@H]21)C(=O)OCC [PERINDOPRIL ERBUMINE]	Compound metabolized
CC(=O)Oc1ccc(C(c2ccc(OC(C)=O)cc2)c2ccccn2)cc1 [BISACODYL]	Compound metabolized
CC(C)(C)NC[C@H](O)COc1nsnc1N1CCOCC1.O=C(O)/C=C\C(=O)O [TIMOLOL MALEATE]	Compound NOT metabolized

Any idea what its Bacterial Biotransformation is? The compound is CC1=C(CC(=O)O)c2cc(F)ccc2/C1=C\c1ccc([S+](C)[O-])cc1 (stereo not drawn)
Compound metabolized

Now give it for CC(C)NCC(O)COc1ccc(CC(N)=O)cc1 (stereo not drawn) [ATENOLOL] too.
Compound NOT metabolized

Now give it for CC(=O)OCC(=O)[C@@]1(OC(C)=O)[C@@H](C)C[C@H]2[C@@H]3C[C@H](F)C4=CC(=O)C=C[C@]4(C)[C@@]3(F)[C@@H](O)C[C@@]21C [DIFLORASONE DIACETATE] too.
Compound metabolized

Now give it for CN1CCN2c3ccccc3Cc3ccccc3C2C1 (stereo not drawn) [MIANSERIN] too.
Compound NOT metabolized

Now give it for COc1cc2nc(N3CCN(C(=O)C4CCCO4)CC3)nc(N)c2cc1OC (stereo not drawn) [TERAZOSIN] too.
Compound NOT metabolized

Now give it for Cc1cc2c(s1)Nc1ccccc1N=C2N1CCN(C)CC1 [OLANZAPINE] too.
Compound NOT metabolized

Now give it for C[C@@H](c1ncncc1F)[C@](O)(Cn1cncn1)c1ccc(F)cc1F [VORICONAZOLE] too.
Compound metabolized

Now give it for CCOC(=O)C1=C(C)NC(C)=C(C(=O)OC)C1c1cccc([N+](=O)[O-])c1 (stereo not drawn) [NITRENDIPINE] too.
Compound metabolized

---

- conditionDetails: human gut metagenome, 24 h, 2 µM
measuredQuantity: Bacterial Biotransformation

compound	measuredQuantity	experimentalResult
CC[C@H](C)C(=O)O[C@H]1CCC=C2C=C[C@H](C)[C@H](CC[C@@H]3C[C@@H](O)CC(=O)O3)[C@H]21	Bacterial Biotransformation	Compound NOT metabolized
CCOC(=O)C1=C[C@]2(CC)CCCN3CCc4c(n1c1ccccc41)[C@@H]32	Bacterial Biotransformation	Compound metabolized
N=C(N)NC(=O)Cc1c(Cl)cccc1Cl	Bacterial Biotransformation	Compound NOT metabolized
CC#C[C@]1(O)CC[C@H]2[C@@H]3CCC4=CC(=O)CCC4=C3[C@@H](c3ccc(N(C)C)cc3)C[C@@]21C	Bacterial Biotransformation	Compound NOT metabolized
C#C[C@]1(OC(C)=O)CC[C@H]2[C@@H]3CCC4=C[C@@H](OC(C)=O)CC[C@@H]4[C@H]3CC[C@@]21C [ETHYNODIOL DIACETATE]	Bacterial Biotransformation	Compound metabolized
CC(C)C[C@H]1C(=O)N2CCC[C@H]2[C@]2(O)O[C@](NC(=O)[C@@H]3C=C4c5cccc6[nH]c(Br)c(c56)C[C@H]4N(C)C3)(C(C)C)C(=O)N12.CS(=O)(=O)O [BROMOCRIPTINE MESYLATE]	Bacterial Biotransformation	Compound NOT metabolized

# next compound below
Any idea what its Bacterial Biotransformation is? The compound is COC(=O)C(c1ccccc1)C1CCCCN1 (configuration not stated) [METHYLPHENIDATE]
Compound NOT metabolized

---

- methodDescription: The drug is tested on WLS-086 corresponding to human gut metagenome with ENA study accession number: PRJEB37062 and ENA sample accession number: ERS12561752 for biotransformation under anaerobic condition. The drug concentrations were measured over 9 timepoints collected between 0 and 24 hours of incubation by liquid-chromatography-coupled mass spectrometry (LC–MS)
- conditionDetails: 2 µM

compound	Bacterial Biotransformation
CN[C@H]1CC[C@@H](c2ccc(Cl)c(Cl)c2)c2ccccc21	Compound metabolized
O=C(CCCN1CCC2(CC1)C(=O)NCN2c1ccccc1)c1ccc(F)cc1	Compound metabolized
OC(c1cc(C(F)(F)F)nc2c(C(F)(F)F)cccc12)C1CCCCN1 (centres undefined)	Compound metabolized

---

- conditionDetails: human gut metagenome, 24 h, 2 µM
measuredQuantity: Bacterial Biotransformation

Use the examples below as a reference point.
compound	Bacterial Biotransformation
C[C@@H](c1ncncc1F)[C@](O)(Cn1cncn1)c1ccc(F)cc1F	Compound metabolized
CC(=O)O[C@]1(C(C)=O)CC[C@H]2[C@@H]3C=C(C)C4=CC(=O)CC[C@]4(C)[C@H]3CC[C@@]21C [MEGESTROL ACETATE]	Compound metabolized
Br.CN1CCC[C@@H]1Cc1c[nH]c2ccc(CCS(=O)(=O)c3ccccc3)cc12 [ELETRIPTAN HYDROBROMIDE]	Compound metabolized
Clc1cccc(Cl)c1N=C1NCCN1	Compound metabolized
CN[C@H]1CC[C@@H](c2ccc(Cl)c(Cl)c2)c2ccccc21	Compound metabolized

Any idea what its Bacterial Biotransformation is? The compound is CCOc1cc(CC(=O)N[C@@H](CC(C)C)c2ccccc2N2CCCCC2)ccc1C(=O)O [REPAGLINIDE]
Compound NOT metabolized

Now give it for CN(C)C(=O)Oc1cccc([N+](C)(C)C)c1.[Br-] [NEOSTIGMINE BROMIDE] too.
Compound NOT metabolized

Now give it for CCCCCNC(=N)N/N=C/c1c[nH]c2ccc(OC)cc12.O=C(O)/C=C\C(=O)O [TEGASEROD MALEATE] too.
Compound NOT metabolized

---

- conditionDetails: human gut metagenome, 24 h, 2 µM

compound	Bacterial Biotransformation
COc1ccc2cc([C@H](C)C(=O)O)ccc2c1	Compound metabolized
CC(C)[C@H]1CC[C@H](C(=O)N[C@H](Cc2ccccc2)C(=O)O)CC1 [NATEGLINIDE]	Compound metabolized
O=C(O)c1cc(/N=N/c2ccc(S(=O)(=O)Nc3ccccn3)cc2)ccc1O	Compound metabolized

---

- conditionDetails: human gut metagenome, 24 h, 2 µM
measuredQuantity: Bacterial Biotransformation

Use the examples below as a reference point.
compound	measuredQuantity	experimentalResult
CC(CCc1ccccc1)NCC(O)c1ccc(O)c(C(N)=O)c1 (stereo unspecified) [LABETALOL]	Bacterial Biotransformation	Compound NOT metabolized
Clc1cccc(Cl)c1N=C1NCCN1 [CLONIDINE]	Bacterial Biotransformation	Compound NOT metabolized
CN1CCC(=C2c3ccccc3CC(=O)c3sccc32)CC1.O=C(O)/C=C/C(=O)O [KETOTIFEN FUMARATE]	Bacterial Biotransformation	Compound metabolized
OCCN(CCO)c1nc(N2CCCCC2)c2nc(N(CCO)CCO)nc(N3CCCCC3)c2n1 [DIPYRIDAMOLE]	Bacterial Biotransformation	Compound metabolized
CC#CCn1c(N2CCC[C@@H](N)C2)nc2c1c(=O)n(Cc1nc(C)c3ccccc3n1)c(=O)n2C [LINAGLIPTIN]	Bacterial Biotransformation	Compound NOT metabolized
O=C(NC(Cc1cc(=O)[nH]c2ccccc12)C(=O)O)c1ccc(Cl)cc1 (stereo unspecified) [REBAMIPIDE]	Bacterial Biotransformation	Compound NOT metabolized

Any idea what its Bacterial Biotransformation is? The compound is CC#C[C@]1(O)CC[C@H]2[C@@H]3CCC4=CC(=O)CCC4=C3[C@@H](c3ccc(N(C)C)cc3)C[C@@]21C [MIFEPRISTONE]
Compound NOT metabolized

Now give it for CC(C)(C)NCC(O)c1cc(Cl)c(N)c(Cl)c1 (stereo unspecified) [CLENBUTEROL] too.
Compound NOT metabolized

Now give it for N=C(N)NC(=O)Cc1c(Cl)cccc1Cl [GUANFACINE] too.
Compound NOT metabolized

Now give it for Cc1ccccc1C(OCCN(C)C)c1ccccc1.O=C(O)CC(O)(CC(=O)O)C(=O)O (stereo unspecified) [ORPHENADRINE CITRATE] too.
Compound metabolized

Now give it for CC12CC3CC(C)(C1)CC(N)(C3)C2 [MEMANTINE] too.
Compound NOT metabolized
